tested on: Aspergillus fumigatus; test: Antifungal activity against Aspergillus fumigatus RCMB 002003 at 10 mg/ml after 3 to 4 days by agar well diffusion method; type: functional; conditions: read-out: IZ
parameter_measured: zone of inhibition at 10000 µg/mL (mm)
Please state the figure in mm; there is no need to write the unit.

Known zone of inhibition at 10000 µg/mL results, listed for orientation:
What zone of inhibition at 10000 µg/mL value was documented for this molecule, Cc1cc(C)n(/N=C/c2cccs2)c(=O)c1C#N ?
11

What zone of inhibition at 10000 µg/mL value was documented for this molecule, Cc1ccc2nc(Cl)c(/C=N/n3c(C)cc(C)c(C#N)c3=O)cc2c1 ?
14.5

Continuing:
What zone of inhibition at 10000 µg/mL value was documented for this molecule, COc1ccc(-c2cc(-c3cccs3)nc3sc(C(=O)Nn4c(C)cc(C)c(C#N)c4=O)c(N)c23)cc1 ?
11.1
